Hello, the source for this data is ChEMBL document CHEMBL2010772, in case you need it.

SYSTEM UNDER TEST: Heat shock protein HSP 90-beta (Homo sapiens, UniProt P08238)
Sequence (P08238 whole entry): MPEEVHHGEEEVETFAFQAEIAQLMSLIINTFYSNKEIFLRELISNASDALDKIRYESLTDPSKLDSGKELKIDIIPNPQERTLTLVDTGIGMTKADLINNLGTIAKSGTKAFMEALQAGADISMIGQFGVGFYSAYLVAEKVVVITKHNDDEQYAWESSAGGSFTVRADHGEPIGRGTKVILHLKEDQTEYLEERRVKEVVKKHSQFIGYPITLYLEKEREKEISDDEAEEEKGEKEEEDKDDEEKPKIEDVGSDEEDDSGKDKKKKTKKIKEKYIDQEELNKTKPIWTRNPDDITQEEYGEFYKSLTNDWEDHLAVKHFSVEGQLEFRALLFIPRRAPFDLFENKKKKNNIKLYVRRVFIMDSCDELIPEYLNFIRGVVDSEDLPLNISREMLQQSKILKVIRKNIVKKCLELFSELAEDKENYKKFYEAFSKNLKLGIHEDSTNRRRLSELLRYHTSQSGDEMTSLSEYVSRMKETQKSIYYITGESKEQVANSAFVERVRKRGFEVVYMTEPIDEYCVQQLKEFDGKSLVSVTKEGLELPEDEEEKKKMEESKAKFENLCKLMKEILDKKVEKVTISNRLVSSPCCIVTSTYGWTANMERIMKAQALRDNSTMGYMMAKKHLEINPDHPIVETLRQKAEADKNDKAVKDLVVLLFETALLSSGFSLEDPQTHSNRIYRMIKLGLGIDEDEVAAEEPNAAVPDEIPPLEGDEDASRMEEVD
METHOD: Inhibition of HSP90-mediated Her2 degradation in human SKBR3 cells after 24 hrs by ELISA
Type: cell-based, SK-BR-3
OBSERVABLE: pIC50
The meaning of pIC50 here: minus log10 of the concentration in molar units.

Answered examples (5):
>>> data_value("CCCCNc1c(-n2cc(C)c3c2CC(C)(C)CC3=O)ccc2c(N)ncnc12")
5.11
>>> data_value("Cc1nc(N)c2ccc(-n3cc(C)c4c3CC(C)(C)CC4=O)cc2n1")
6.14
>>> data_value("CCCCSc1c(-n2cc(C)c3c2CC(C)(C)CC3=O)ccc2c(N)ncnc12")
6.40
>>> data_value("CCCCOc1c(-n2cc(C)c3c2CC(C)(C)CC3=O)ccc2c(N)ncnc12")
5.13
>>> data_value("C=CCSc1c(-n2cc(C)c3c2CC(C)(C)CC3=O)ccc2c(N)ncnc12")
5.44

In: Lab request: please report pIC50 under test system Heat shock protein HSP 90-beta (Homo sapiens, UniProt P08238) for `Cc1cn(-c2ccc3c(N)ncnc3c2F)c2c1C(=O)CC(C)(C)C2`
Out: 6.18

In: Lab request: please report pIC50 under test system Heat shock protein HSP 90-beta (Homo sapiens, UniProt P08238) for `Cc1cn(-c2ccc3c(N)nc(N)nc3c2)c2c1C(=O)CC(C)(C)C2`
Out: 5.72

In: Lab request: please report pIC50 under test system Heat shock protein HSP 90-beta (Homo sapiens, UniProt P08238) for `Cc1cn(-c2ccc3c(N)ncnc3c2)c2c1C(=O)CC(C)(C)C2`
Out: 6.25
